Values compiled from PubChem BioAssay (NCI).

Tested on: BT-549 breast
Experiment: NCI-60 one-dose screen, 48 h
Conditions: 10 µM unless noted
Compounds without any hit were thinned out: in the full panel of roughly 83,000, 20% have a hit. Calls of active or inactive are those of the source. How the source made its calls: active means growth percent below 10; inactive means the rest.
Outcome codes: YES for active, NO for inactive

[[record]]
compound = "CN1CCc2c(sc3ncnc(N/N=C/c4ccc(Cl)c(Cl)c4)c23)C1"
class = "NO"

[[record]]
compound = "CCCC(=O)NC(c1ccc(N(CC)CC)cc1)c1cc(C)c2cccnc2c1O (centres undefined)"
class = "NO"

[[record]]
compound = "N#Cc1nc(-c2ccccc2)oc1N1CC[C@@H](CO)C1"
class = "NO"

[[record]]
compound = "CC(C)(C)OC(=O)N1C(=O)c2c(c3c4ccccc4[nH]c3c3ccc4ccccc4c23)C1=O"
class = "NO"

[[record]]
compound = "COc1ccc([C@@H]2c3[nH]c4ccccc4c3CC3C(=O)N(C4CCN(Cc5c(F)cccc5F)CC4)CC(=O)N32)c(OC)c1 (some centres undefined)"
class = "NO"

[[record]]
compound = "O=C(N/N=C/c1ccc(Br)s1)c1[nH]c2ccc(Br)cc2c1-c1ccccc1"
class = "YES"

[[record]]
compound = "OC1CCN(CCCOc2c3ccc(Cl)cc3nc3c2oc2ccccc23)CC1"
class = "YES"

[[record]]
compound = "N#Cc1c(-c2ccc(F)cc2)nc2c(C#N)c(Nc3ccccc3)nn2c1N"
class = "NO"

[[record]]
compound = "[Cl][Ru].c1ccc(-c2cc(-c3ccccn3)nc(-c3ccccn3)c2)cc1.c1ccc(-c2ccnc3c2ccc2c(-c4ccccc4)ccnc23)cc1"
class = "YES"

[[record]]
compound = "NS(=O)(=O)c1ccc(Nc2nc(SCC(=O)c3ccc(Cl)cc3)nc3ccccc23)cc1"
class = "NO"

[[record]]
compound = "Cc1cc(C(=O)Nc2sc3c(c2C(N)=O)CCC(=O)C3)ccc1OCCN1CCCCC1"
class = "NO"

[[record]]
compound = "CCCSc1nc(Nc2ccc(/C(C)=N\\NC(N)=S)cc2)c(C#N)c(-c2ccc(OC)cc2)n1"
class = "NO"

[[record]]
compound = "C=CCn1c(SCC(=O)c2ccc(Br)cc2)nnc1-c1c[nH]c2ccccc12"
class = "NO"

[[record]]
compound = "O=C1C2=C(C(=O)c3c(O)cccc31)C(c1ccco1)c1sc(=O)[nH]c1S2 (centres undefined)"
class = "YES"

[[record]]
compound = "COc1cc2nc(-c3ccc(C(F)(F)F)cc3)cc(OCCCNCC3CCCO3)c2cc1OC (centres undefined)"
class = "NO"

[[record]]
compound = "Cn1c(SCC(=O)Nc2ccc(-c3nc4ccc([N+](=O)[O-])cc4[nH]3)cc2)nc2ccccc2c1=O"
class = "NO"

[[record]]
compound = "C#C[C@]1(O)CC[C@H]2[C@@H]3CC=C4c5sc(Nc6ccc(Cl)cn6)nc5CC[C@]4(C)[C@H]3CC[C@@]21C"
class = "NO"

[[record]]
compound = "COc1cc(/C=C/C(=O)c2ccccc2)ccc1Oc1nc(NCCO)nc(N2CCOCC2)n1"
class = "NO"

[[record]]
compound = "CCOC(=O)c1c(NC(=O)c2cccc(C(F)(F)F)c2)sc2cc(O)ccc12"
class = "NO"

